Reference for the values: patent EP0648744A1

Tested on: embryonic rat cortices
Experiment: Acute glutamate neurotoxicity in cortical cell cultures (lactate dehydrogenase release)
Format: cell-based
Details: neuronal degeneration, 500 µM glutamate for 5 to 30 minutes at room temperature, lactate dehydrogenase in supernatant after overnight at 37°C, read-out: IC₅₀
Kindly state log10 of IC50 for each of the entries shown.
Log10 applied to IC50; unit prior to transform: nM.

Query string: Which log10 of IC50 value is on record for C[C@@H](CCN1CCC(Cc2ccccc2)CC1)[C@@H](O)c1ccc(O)cc1 (relative stereo) ?
Result string: 3.28

Query string: Which log10 of IC50 value is on record for C[C@@H](CN1CCC(Cc2ccccc2)CC1)C(=O)c1ccc(OCc2ccccc2)cc1 ?
Result string: 4.82

Query string: Which log10 of IC50 value is on record for CC(Cc1ccc(O)cc1)C(C)N1CCC(Cc2ccccc2)CC1 (racemic) ?
Result string: 2.08

Query string: Which log10 of IC50 value is on record for C[C@H](CN1CCC(Cc2ccccc2)CC1)[C@@H](O)c1ccc(O)cc1 (relative stereo) ?
Result string: 2.04

Query string: Which log10 of IC50 value is on record for C[C@H](CN1CCC(Cc2ccccc2)CC1)[C@H](O)c1ccc(O)cc1 ?
Result string: 1.90

Query string: Which log10 of IC50 value is on record for C[C@@H](CN1CCC(Cc2ccccc2)CC1)[C@@H](O)c1ccc(O)cc1 (relative stereo) [Ex. 8] ?
Result string: 1.60

Query string: Which log10 of IC50 value is on record for C[C@@H](CN1CCC(Cc2ccccc2)CC1)[C@@H](O)c1ccc(OCc2ccccc2)cc1 (relative stereo) ?
Result string: 4.81

Query string: Which log10 of IC50 value is on record for C[C@@H](CN1CCC(Cc2ccccc2)CC1)[C@@H](O)c1ccc(O)cc1 [Ex. 15] ?
Result string: 1.78

Query string: Which log10 of IC50 value is on record for CC(Cc1ccccc1)CN1CCC(Cc2ccccc2)CC1 (racemic) ?
Result string: 4.11

Query string: Which log10 of IC50 value is on record for CC(CCN1CCC(Cc2ccccc2)CC1)Cc1ccc(O)cc1 (racemic) ?
Result string: 3.54

* * *

Molecular target: NMDA receptor
Assay: 3H-MK 801 (dizocilpine) binding in vitro, rat brain membranes
Conditions: displacement of 5 nM ³H-MK 801, washed rat brain membranes; high affinity values determined from biphasic displacement curves; read-out: IC₅₀
Reported Endpoint: pIC50
Bear in mind: pIC50 is minus log10 of a mol/L concentration; give just that figure.

Query string: Which pIC50 value is on record for C[C@@H](CN1CCC(Cc2ccccc2)CC1)C(=O)c1ccc(OCc2ccccc2)cc1 [Ex. 12] ?
Result string: 6.05

Query string: Which pIC50 value is on record for C[C@@H](CN1CCC(Cc2ccccc2)CC1)[C@@H](O)c1ccc(O)cc1 (relative stereo) [Ex. 8] ?
Result string: 8.30

Query string: Which pIC50 value is on record for CC(Cc1ccccc1)CN1CCC(Cc2ccccc2)CC1 (racemic) [Ex. 21] ?
Result string: 5.85

Query string: Which pIC50 value is on record for C[C@@H](CN1CCC(Cc2ccccc2)CC1)[C@@H](O)c1ccc(O)cc1 [Ex. 15] ?
Result string: 8.89

Query string: Which pIC50 value is on record for C[C@H](CN1CCC(Cc2ccccc2)CC1)[C@H](O)c1ccc(O)cc1 [Ex. 16] ?
Result string: 8.52

Query string: Which pIC50 value is on record for C[C@H](CN1CCC(Cc2ccccc2)CC1)[C@@H](O)c1ccc(O)cc1 (relative stereo) [Ex. 9] ?
Result string: 8.22

Query string: Which pIC50 value is on record for C[C@@H](CCN1CCC(Cc2ccccc2)CC1)[C@@H](O)c1ccc(O)cc1 (relative stereo) [Ex. 5] ?
Result string: 6.52

Query string: Which pIC50 value is on record for C[C@@H](CN1CCC(Cc2ccccc2)CC1)[C@@H](O)c1ccc(OCc2ccccc2)cc1 (relative stereo) [Ex. 7] ?
Result string: 5.89

Query string: Which pIC50 value is on record for CC(Cc1ccc(O)cc1)C(C)N1CCC(Cc2ccccc2)CC1 (racemic) [Ex. 10] ?
Result string: 6.82

Query string: Which pIC50 value is on record for CC(CCN1CCC(Cc2ccccc2)CC1)Cc1ccc(O)cc1 (racemic) [Ex. 6] ?
Result string: 6.28
